B1: F1*; the commonest letter at each place (parent)
chain: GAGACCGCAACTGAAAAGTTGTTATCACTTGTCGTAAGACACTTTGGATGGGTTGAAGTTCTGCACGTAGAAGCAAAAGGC

variants of: B1; assay: fraction ligated after 30 min (ligated reads / total reads); higher = more ligase activity; settings: with F1*sub RNA substrate (template-directed ligation), 42 °C
VALUE TYPE: fraction ligated
Lab note: record just the number, no unit beside it.

Consider the following illustrative entries.
| VARIANT NOTATION | fraction ligated |
| --- | --- |
| T29A T44A | 0.833 |
| C33G G38C | 0.829 |

Next item in the queue.
// query // fraction ligated lookup, key: C42T G46C
// result 0.813
